Molecular target: Cytochrome P450 3A4 (Homo sapiens) (UniProt P08684)
Sequence (P08684 whole entry, looked up): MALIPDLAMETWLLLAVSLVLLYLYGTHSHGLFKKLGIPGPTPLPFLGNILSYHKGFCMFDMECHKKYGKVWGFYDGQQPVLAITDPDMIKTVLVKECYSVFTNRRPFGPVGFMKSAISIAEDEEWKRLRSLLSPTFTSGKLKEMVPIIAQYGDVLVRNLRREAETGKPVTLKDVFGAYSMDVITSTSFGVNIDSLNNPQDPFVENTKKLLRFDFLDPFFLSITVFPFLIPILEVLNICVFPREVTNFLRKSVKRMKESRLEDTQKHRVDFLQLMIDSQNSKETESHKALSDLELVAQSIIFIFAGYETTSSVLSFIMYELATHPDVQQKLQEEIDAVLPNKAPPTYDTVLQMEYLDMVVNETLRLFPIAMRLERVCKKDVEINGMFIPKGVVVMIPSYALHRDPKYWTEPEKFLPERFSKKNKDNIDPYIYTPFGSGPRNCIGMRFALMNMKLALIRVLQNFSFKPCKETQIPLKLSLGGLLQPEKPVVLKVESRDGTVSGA
Assay: qHTS Assay for Inhibitors and Substrates of Cytochrome P450 3A4 (AID 884); also: nearly all actives have a fitted effect of over 50% in size
Settings: recombinant CYP3A4, Luciferin-PPXE luminescence; series mostly up to 57.1 µM
Results filed as inconclusive are left out. Calls of active or inactive are those of the source. Calls follow the shape of the dose curve; as a rule, active = well fitted inhibition curve with a large enough effect; inconclusive = small, poorly fitted or top-dose-only effect; inactive = no such curve, though single readings can be large or run the other way.
Possible outcomes: yes (1) (active), no (0) (inactive)

| chem smiles | measured on | discrete label |
| --- | --- | --- |
| O=C(CCc1ccc(O)cc1)c1c(O)cc(O)cc1O[C@@H]1O[C@H](CO)[C@@H](O)[C@H](O)[C@H]1O | Cytochrome P450 3A4 (Homo sapiens) (UniProt P08684) | no (0) |
| O=C(c1ccco1)N1CCC2(CC1)CN(c1ccc(-c3ccccc3)cc1)C2 | Cytochrome P450 3A4 (Homo sapiens) (UniProt P08684) | no (0) |
| Cc1noc(C)c1-c1ccc2ncnc(NCc3cccnc3)c2c1 | Cytochrome P450 3A4 (Homo sapiens) (UniProt P08684) | yes (1) |
| CCCn1c(C)nc2c(NCCN(C)C)nc(C)nc21 | Cytochrome P450 3A4 (Homo sapiens) (UniProt P08684) | no (0) |
| CCCn1c(-c2ccc(F)cc2)nc2c(NCCN3CCSCC3)nc(C)nc21 | Cytochrome P450 3A4 (Homo sapiens) (UniProt P08684) | yes (1) |
| COc1cccc(-c2nccc(NCc3cccc(C)c3)n2)c1 | Cytochrome P450 3A4 (Homo sapiens) (UniProt P08684) | yes (1) |
